In this section, each of the molecules is paired with its reported % Inhibition.
Tested on: P. falciparum stage V gametocytes
Design: BacTiter-Glo ATP luminescence viability of purified stage V gametocytes in 384-well plates, per cent inhibition versus DMSO
Conditions: 48 h, 5 µM; inhibitor
Among all 13,000 compounds or so, about 3,200 (25%) showed an effect of 50% or more. The list shows a part of the results.
Give the quantity in %, number only.

In the examples that follow, each entry is paired with its recorded % Inhibition.
                                   molecule                       assay_system  assay_value
0  CC[C@H]1CN2CC[C@H]1C[C@H]2[C@H](O)c1ccnc2ccc(OC)cc12 [TCMDC-123485]  P. falciparum stage V gametocytes       -3.295
1  CC[C@H]1CN2CC[C@@H]1C[C@H]2[C@H](O)c1cc(N2CCC(CO)CC2)nc2ccc(OC)cc12 [TCMDC-141418]  P. falciparum stage V gametocytes        34.66
2  O=C(/C=C/c1ccc(Cl)c(Cl)c1)NCCCCCN1CCC(CCNC(=O)c2snnc2-c2ccccc2)CC1 [TCMDC-140007]  P. falciparum stage V gametocytes       -18.32
3  CC[C@H]1CN2CC[C@@H]1C[C@H]2[C@H](O)c1cc(N2CCCC(C)(C)C2)nc2ccc(OC)cc12 [TCMDC-141423]  P. falciparum stage V gametocytes        67.35
4  O=C(C=Cc1ccc(Cl)c(Cl)c1)NCCCCCN1CCC(CCNC(=O)c2sc3ccccc3c2Cl)CC1 [TCMDC-139567]  P. falciparum stage V gametocytes        38.26

What value of measured % Inhibition is listed for O=C(C=Cc1ccc(Cl)c(Cl)c1)NCCCCCN1CCC(CCCNC(=O)c2sc3ccccc3c2Cl)CC1 [TCMDC-139573] ?
86.01

What value of measured % Inhibition is listed for CC[C@H]1CN2CC[C@H]1C[C@H]2[C@H](O)c1cc(N2CCCC(CO)C2)nc2ccc(OC)cc12 (stereo partly shown) [TCMDC-141417] ?
-19.77

* * *

System: P. falciparum stage V gametocytes
Parameters: BacTiter-Glo ATP luminescence viability of purified stage V gametocytes in 384-well plates, per cent inhibition versus DMSO
Conditions: 48 h, 5 µM; inhibitor
The campaign covered roughly 13,000 compounds. About 3,200 (25%) showed an effect of 50% or more. The list shows a part of the results.
measure: % Inhibition
Answer format: value, then unit.

In the examples that follow, each entry is paired with its recorded % Inhibition.
>>> df
                                   compound       measure  assay_value
0  Nc1ccc(-c2nc3cc(C4=N[C@H]5CCCC[C@H]5N4)ccc3o2)cc1[N+](=O)[O-]  % Inhibition       108.2%
1  CC1CCN(CC[C@H]2CCCN2S(=O)(=O)c2cccc(NC(=O)c3cc4ccccc4s3)c2)CC1  % Inhibition         -68%
2  CC(C)C[C@H](NC(=O)c1cc2ccccc2s1)C(=O)N[C@H]1CCN(Cc2ccc(I)c(OC3CCN(C)C3)c2)C1 (stereo partly shown)  % Inhibition       64.78%

What value of measured % Inhibition is listed for CC(C)C[C@H](NC(=O)c1cc2ccccc2s1)C(=O)N[C@H]1CCN(Cc2ccc(OCCCN(C)C)c(Cl)c2)C1 ?
44.54%

What value of measured % Inhibition is listed for O=[N+]([O-])c1cccc(-c2nc3cc(C4=NC5CCCCC5N4)ccc3[nH]2)c1 (stereo not shown) ?
5.96%

What value of measured % Inhibition is listed for NC1=NC(Cc2ccccc2)(c2ccncc2)C(=O)N1CCCc1ccccc1 (stereo not shown) ?
2.084%

What value of measured % Inhibition is listed for COc1cc(CNc2ncc(-c3ccsc3)c(-c3nccs3)n2)cc(OC)c1 ?
31.51%

What value of measured % Inhibition is listed for c1cc(CNc2ncc(-c3ccsc3)c(-c3nccs3)n2)ccn1 ?
35.87%

What value of measured % Inhibition is listed for COc1ccc(CNc2ncc(-c3ccsc3)c(-c3nccs3)n2)cc1OC ?
23.78%

What value of measured % Inhibition is listed for C[C@H](NC(=O)[C@H](CCCCNC(=O)OC(C)(C)C)NC(=O)OC(C)(C)c1ccc(-c2ccccc2)cc1)C(=O)OCc1ccccc1 ?
15.4%

What value of measured % Inhibition is listed for COc1ccccc1CNc1ncc(-c2ccsc2)c(-c2nccs2)n1 ?
13.46%

What value of measured % Inhibition is listed for Fc1ccc(CNc2ncc(-c3ccsc3)c(-c3nccs3)n2)cc1 ?
57.46%

What value of measured % Inhibition is listed for Fc1cccc(CNc2ncc(-c3ccsc3)c(-c3nccs3)n2)c1 ?
21.86%

What value of measured % Inhibition is listed for N#Cc1ccccc1S(=O)(=O)N1CCCC(CNC(=O)[C@H](CC2CCCCC2)NC(=O)c2cc3ccccc3s2)C1 (stereo partly shown) ?
-3.694%

What value of measured % Inhibition is listed for Fc1ccccc1CNc1ncc(-c2ccsc2)c(-c2nccs2)n1 ?
77.55%

What value of measured % Inhibition is listed for COc1cccc(CNc2ncc(-c3ccsc3)c(-c3nccs3)n2)c1 ?
51.63%
